# experiment-summary: Stability in PBS pH 6.5
# assay-setup: Table 8, 60 min
Measured Remaining Percentage values are reported for all entries that follow.
quantity-name: Remaining Percentage (%)

INSERT INTO results (compound, quantity_name, u, test_value) VALUES
  ('O=C(O)CCCc1ccc(N(CCCl)CCCl)cc1 [Chlorambucil, reference compound]', 'Remaining Percentage', '%', 42.26),
  ('CCCCC(=O)Oc1cccc2ccn(CCN(C)C)c12', 'Remaining Percentage', '%', 99.71),
  ('CC(OC(=O)n1cc(CCN(C)C)c2ccccc21)OC(=O)C(C)(C)C (racemic)', 'Remaining Percentage', '%', 89.82),
  ('CC(OC(=O)C(C)C)OC(=O)n1cc(CCN(C)C)c2ccccc21 (stereo not shown)', 'Remaining Percentage', '%', 100.03);

###

Measured Remaining Percentage values are reported for all entries that follow.
# experiment-summary: Stability in SGF with pepsin
# Format: physicochemical
# assay-setup: Table 8, 120 min
quantity-name: Remaining Percentage (%)

INSERT INTO results (compound, u, test_value) VALUES
  ('CC[C@H]1OC(=O)[C@H](C)[C@@H](O[C@H]2C[C@@](C)(OC)[C@@H](O)[C@H](C)O2)[C@H](C)[C@@H](O[C@@H]2O[C@H](C)C[C@H](N(C)C)[C@H]2O)[C@](C)(O)C[C@@H](C)C(=O)[C@H](C)[C@@H](O)[C@]1(C)O [Erythromycin, reference compound]', '%', 14.06),
  ('CCCCC(=O)Oc1cccc2ccn(CCN(C)C)c12 [VLS-03-1]', '%', 102.16),
  ('CC(OC(=O)C(C)C)OC(=O)n1cc(CCN(C)C)c2ccccc21 (stereo not shown) [VLS-03-10]', '%', 91.42),
  ('CC(OC(=O)n1cc(CCN(C)C)c2ccccc21)OC(=O)C(C)(C)C (racemic) [VLS-03-15]', '%', 103.18);

###

Measured Remaining Percentage values are reported for all entries that follow.
# experiment-summary: Stability in Mouse Plasma
# Assay type: in vitro ADME
# assay-setup: Table 9, 30 min
quantity-name: Remaining Percentage (%)

INSERT INTO assay_data (compound, test_value) VALUES
  ('CC(OC(=O)n1cc(CCN(C)C)c2ccccc21)OC(=O)C(C)(C)C (racemic)', 0.00),
  ('CC(C)[N+](C)(CCOC(=O)C1c2ccccc2Oc2ccccc21)C(C)C [Propantheline, reference compound]', 70.74),
  ('CC(OC(=O)C(C)C)OC(=O)n1cc(CCN(C)C)c2ccccc21 (stereo not shown)', 0.00),
  ('CCCCC(=O)Oc1cccc2ccn(CCN(C)C)c12', 0.00);

###

# experiment-summary: Stability in SGF with pepsin
# Type: physicochemical
# assay-setup: Table 10, read-out: T½
Measured half-life values are reported for all entries that follow.
quantity-name: half-life

INSERT INTO measurements (molecule, test_value) VALUES
  ('CC[C@H]1OC(=O)[C@H](C)[C@@H](O[C@H]2C[C@@](C)(OC)[C@@H](O)[C@H](C)O2)[C@H](C)[C@@H](O[C@@H]2O[C@H](C)C[C@H](N(C)C)[C@H]2O)[C@](C)(O)C[C@@H](C)C(=O)[C@H](C)[C@@H](O)[C@]1(C)O [Erythromycin, reference compound]', '0.671 h'),
  ('C[N+](C)(CCc1c[nH]c2ccccc12)COP(=O)([O-])O [VLS-02-23]', '104 h');

Cited source for all entries: patent US11643391B2
